- assayed_system: COX-2 (Homo sapiens, UniProt P35354)
- Sequence (P35354 18-604): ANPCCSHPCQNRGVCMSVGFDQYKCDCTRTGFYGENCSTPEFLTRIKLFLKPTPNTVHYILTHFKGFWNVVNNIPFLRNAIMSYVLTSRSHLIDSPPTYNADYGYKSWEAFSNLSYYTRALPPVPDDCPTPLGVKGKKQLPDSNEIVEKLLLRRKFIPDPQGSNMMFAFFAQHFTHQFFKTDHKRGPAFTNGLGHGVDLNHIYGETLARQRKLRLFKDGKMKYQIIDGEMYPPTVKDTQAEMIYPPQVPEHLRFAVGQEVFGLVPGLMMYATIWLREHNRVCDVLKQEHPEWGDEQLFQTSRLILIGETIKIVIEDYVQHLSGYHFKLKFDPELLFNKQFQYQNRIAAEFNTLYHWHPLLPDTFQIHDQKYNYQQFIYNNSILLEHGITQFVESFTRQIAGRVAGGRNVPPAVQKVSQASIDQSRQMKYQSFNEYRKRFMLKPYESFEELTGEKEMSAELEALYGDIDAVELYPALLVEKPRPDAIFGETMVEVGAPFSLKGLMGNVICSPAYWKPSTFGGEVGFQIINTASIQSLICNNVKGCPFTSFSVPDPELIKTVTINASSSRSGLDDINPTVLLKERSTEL
- experiment_summary: IC50 determinations using purified enzymes (TLC assay), COX-2
- Type: biochemical
- Set-up: made in house; host or cells: Sf9 insect cells
- condition_info: Table 2; assayed against purified enzymes; read-out: IC50 COX-2
assay_metric: IC50 (µM)

>>> recorded_measurement("Cc1ccc(-c2cc(CCC(=O)O)nn2-c2ccc(S(N)(=O)=O)cc2)cc1 [Compound 30c]")
8.9
>>> recorded_measurement("COC(=O)c1cc(-c2ccc(C)cc2)n(-c2ccc(S(C)(=O)=O)cc2)n1 [Compound 29b]")
2.8

---

- assayed_system: COX-2 (Mus musculus, UniProt Q05769)
- Construct: metabolism by the newly synthesized COX-2; endogenous in cells
- Sequence (Q05769 18-604): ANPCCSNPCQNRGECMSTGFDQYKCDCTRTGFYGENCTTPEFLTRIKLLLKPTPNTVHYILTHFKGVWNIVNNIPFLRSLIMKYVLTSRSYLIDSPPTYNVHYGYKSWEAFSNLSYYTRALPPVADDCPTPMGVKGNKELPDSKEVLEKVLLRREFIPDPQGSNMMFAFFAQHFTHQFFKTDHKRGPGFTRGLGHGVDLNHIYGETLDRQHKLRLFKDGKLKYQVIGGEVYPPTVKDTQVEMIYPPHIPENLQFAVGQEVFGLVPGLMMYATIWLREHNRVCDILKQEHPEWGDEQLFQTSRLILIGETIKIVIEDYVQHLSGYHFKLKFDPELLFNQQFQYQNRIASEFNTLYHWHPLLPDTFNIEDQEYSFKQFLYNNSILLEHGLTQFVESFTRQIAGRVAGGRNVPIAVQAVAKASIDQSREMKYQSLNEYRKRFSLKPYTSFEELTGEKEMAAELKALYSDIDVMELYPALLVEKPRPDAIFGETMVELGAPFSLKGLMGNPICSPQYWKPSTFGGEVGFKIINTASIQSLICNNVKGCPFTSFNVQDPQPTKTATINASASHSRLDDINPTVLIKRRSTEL
- experiment_summary: Macrophage assay (RAW264.7), COX-2
- Format: cell-based, murine
- condition_info: Table 3; macrophage assay; read-out: IC50 COX-2
- Text: Thus, NSAID derivatives that are identified as potentially useful in the methods described herein can be further tested using, for example, the RAW264.7 murine macrophage cell line. These cells are readily available (for example, from the American Type Culture Collection (ATCC), Manassas, Va., United States of America) and are easily cultured in large numbers. They normally express low levels of COX-1 and very low to undetectable levels of COX-2. […]
Field 'label' (enum: condition met / condition not met). Set to condition met when IC50 is strictly under 0.2 µM; else condition not met.

>>> group("COc1ccc2c(c1)c(CC(=O)NCCCCNC(=O)Cc1ccc(Nc3ccc([N+](=O)[O-])c4nonc34)cc1)c(C)n2C(=O)c1ccc(Cl)cc1 [Compound 27ii]")
"condition not met"
>>> group("COc1ccc2c(c1)c(CC(=O)NCCCCNC(=O)c1ccc(C(=O)O)c(-c3c4ccc(=O)cc-4oc4cc(O)ccc34)c1)c(C)n2C(=O)c1ccc(Cl)cc1 [Compound 27qq]")
"condition met"
>>> group("CC[N+](CC)=c1ccc2nc3c(cc(NC(=O)CCOCCOCCOCCOCCNC(=O)Cc4c(C)n(C(=O)c5ccc(Cl)cc5)c5ccc(OC)cc45)c4ccccc43)oc-2c1 [Compound 27uu]")
"condition met"
>>> group("COc1ccc2c(c1)c(CC(=O)NCCNS(=O)(=O)c1ccc(/N=N/c3ccc(N(C)C)cc3)cc1)c(C)n2C(=O)c1ccc(Cl)cc1 [Compound 27aa]")
"condition met"
>>> group("COc1ccc2c(c1)c(CC(=O)NCCNS(=O)(=O)c1cccc3c(N(C)C)cccc13)c(C)n2C(=O)c1ccc(Cl)cc1 [Compound 27x]")
"condition met"
>>> group("CC[N+](CC)=c1ccc2c(-c3ccccc3)c(C)c(/C=C/C=C3/N(CCCCCC(=O)NCCCCNC(=O)Cc4c(C)n(C(=O)c5ccc(Cl)cc5)c5ccc(OC)cc45)c4ccc(S(=O)(=O)[O-])cc4C3(C)C)oc-2c1 [Compound 27ttt]")
"condition not met"
